System: S. aureus A798
Assay: Bacterial growth minimal inhibitory concentration (microdilution, cation-adjusted Mueller-Hinton Broth)
Type: cell-based, Staphylococcus aureus
Conditions: Staphylococcus aureus, A798; multiply-resistant strain (methicillin- and quinolone-resistant)

- compound: "CN1CC(Oc2cncc(-c3cccc(CNCC[C@H]4CN(c5ccc6c(n5)NC(=O)CO6)C(=O)O4)n3)n2)C1"
  measurement-unit: "µg/mL"
  MIC: 0.5
- compound: "CN1CC[C@@H](Oc2cccc(-c3cccc(CNCC[C@H]4CN(c5ccc6c(n5)NC(=O)CO6)C(=O)O4)c3)n2)C1"
  measurement-unit: "µg/mL"
  MIC: 0.5
- compound: "CCN1CCC(Oc2cccc(-c3cccc(CNCC[C@H]4CN(c5ccc6c(n5)NC(=O)CO6)C(=O)O4)c3)n2)C1 (mixture of isomers)"
  measurement-unit: "µg/mL"
  MIC: 0.5

Values were extracted from patent US9850256B2.
